# Tested on: GXF 251L
# test_summary: monolayer cytotoxicity test (modified propidium iodide assay), GXF 251L
# Type: cell-based
# reported_conditions: Stomach
// boundary case: IC50 antitumoral activity equal to 0.7 µg/mL maps to Not met; strictly smaller maps to Met

Sample answers from the record:
structure_string	answer_label
ON=C(c1cccc(C(=NO)N2CC2)c1)N1CC1	Not met
ON=C(c1ccc(C(=NO)N2CC2)o1)N1CC1	Not met
ON=C(c1ccc(C(=NO)N2CC2)cc1)N1CC1	Met
ON=C(c1cccc(C(=NO)N2CC2)n1)N1CC1	Met

Lab note: next compound to report on.
Challenge: Please state whether IC50 antitumoral activity is below 0.7 µg/mL for "ON=C(c1cc(C(=NO)N2CC2)cc(C(=NO)N2CC2)c1)N1CC1"
Response given: Not met

----------
# System: LXFL 529
# test_summary: monolayer cytotoxicity test (modified propidium iodide assay), LXFL 529
# Assay type: cell-based
# reported_conditions: Lung
A collection of molecules and their measured log10 of IC50 antitumoral activity
Record value = log10 of IC50 antitumoral activity given in µg/mL.

Worked set:
structure_string	value
ON=C(c1cccc(C(=NO)N2CC2)n1)N1CC1	-1.57
ON=C(c1ccc(C(=NO)N2CC2)cc1)N1CC1	-1.42
ON=C(c1ccc(C(=NO)N2CC2)nc1)N1CC1	-2.22
ON=C(c1ccc(C(=NO)N2CC2)o1)N1CC1	-1.00
ON=C(c1cc(C(=NO)N2CC2)cc(C(=NO)N2CC2)c1)N1CC1	-1.00

We now examine a further molecule.
Challenge: // query log10 of IC50 antitumoral activity value for entry "ON=C(c1cccc(C(=NO)N2CC2)c1)N1CC1"
Response given: -1.20

----------
A collection of compounds and their measured log10 IC50 antitumoral activity
# Tested on: 944 LL
# test_summary: monolayer cytotoxicity test (modified propidium iodide assay), 944 LL
# Assay type: cell-based
# reported_conditions: Kidney
# Excerpt: The compounds pursuant to the invention with the general formula I show antitumoral activity. The antitumoral activities of some compounds pursuant to the invention in the monolayer cytotoxicity test on selected cell lines are shown in Table 1. The low susceptibility of fibroblasts and endothelial cells with the use of the compounds pursuant to the invention is surprising.
Record value = log10 of IC50 antitumoral activity given in µg/mL.

Challenge: // query log10 IC50 antitumoral activity value for entry "ON=C(c1cccc(C(=NO)N2CC2)c1)N1CC1"
Response given: -0.10

Challenge: // query log10 IC50 antitumoral activity value for entry "ON=C(c1cc(C(=NO)N2CC2)cc(C(=NO)N2CC2)c1)N1CC1"
Response given: -0.12

----------
# Tested on: 944 LL
# test_summary: monolayer cytotoxicity test (modified propidium iodide assay), 944 LL
# Type: cell-based
# reported_conditions: Kidney
A collection of compounds and their measured IC50 antitumoral activity

Worked set:
compound	readout_kind	value
ON=C(c1ccc(C(=NO)N2CC2)cc1)N1CC1 [Compound 7]	IC50 antitumoral activity	0.348 µg/mL
ON=C(c1cccc(C(=NO)N2CC2)n1)N1CC1 [Compound 6]	IC50 antitumoral activity	0.115 µg/mL
ON=C(c1ccc(C(=NO)N2CC2)o1)N1CC1 [Compound 16]	IC50 antitumoral activity	1.359 µg/mL

We now examine a further compound.
Challenge: // query IC50 antitumoral activity value for entry ON=C(c1ccc(C(=NO)N2CC2)nc1)N1CC1 [Compound 14]
Response given: 0.198 µg/mL

Source of measurements: patent US7078418B1
